# assay.notes: Oral bioavailability in rat at 10 mg/kg
# Type: ADME, organism-based
# condition.parameters: in vivo
// label = fulfilled if bioavailability is not less than 30%, otherwise not fulfilled

Prompt: Would you say COc1ccc2c(c1)[C@@H]1C[C@]1(C(=O)N1[C@@H]3CC[C@H]1CN(C)C3)Cn1c-2c(C2CCCCC2)c2ccc(C(=O)NS(=O)(=O)N(C)C)cc21 shows bioavailability at minimum 30%?
Response: fulfilled

Prompt: Would you say COc1ccc2c(c1)C1CC1(C(=O)N1C3CCC1CN(C)C3)Cn1c-2c(C2CCCCC2)c2ccc(C(=O)NS(=O)(=O)C3CC3)cc21 (racemic) shows bioavailability at minimum 30%?
Response: not fulfilled

Prompt: Would you say COc1ccc2c(c1)[C@@H]1C[C@]1(C(=O)N1C3CCC1CN(C)C3)Cn1c-2c(C2CCCCC2)c2ccc(C(=O)NS(=O)(=O)C3CCC3)cc21 shows bioavailability at minimum 30%?
Response: not fulfilled

Prompt: Would you say COc1ccc2c(c1)C1CC1(C(=O)N1C3CCC1CN(C)C3)Cn1c-2c(C2CCCCC2)c2ccc(C(=O)NS(=O)(=O)CC3CCC3)cc21 (racemic) shows bioavailability at minimum 30%?
Response: not fulfilled

Prompt: Would you say COc1ccc2c(c1)C1CC1(C(=O)N1C3CCC1CN(C)C3)Cn1c-2c(C2CCCCC2)c2ccc(C(=O)NS(C)(=O)=O)cc21 (racemic) shows bioavailability at minimum 30%?
Response: not fulfilled

Prompt: Would you say COc1ccc2c(c1)C1CC1(C(=O)N1C3CCC1CN(C)C3)Cn1c-2c(C2CCCCC2)c2ccc(C(=O)NS(=O)(=O)C(C)C)cc21 (racemic) shows bioavailability at minimum 30%?
Response: fulfilled

====

Exercise: for every item that follows, state its recorded concentration at 6 h.
# assay.notes: Drug uptake in rat at 10 mg/kg, po liver after 6 hrs
# Type: ADME, organism-based
# condition.parameters: read-out: Drug uptake
Answer with a number only, understood to be in µM.

Prompt: May I ask what concentration at 6 h has been recorded for COc1ccc2c(c1)C1CC1(C(=O)N1C3CCC1CN(C)C3)Cn1c-2c(C2CCCCC2)c2ccc(C(=O)NS(=O)(=O)CC(C)(C)C)cc21 (racemic) ?
Response: 65.3

Prompt: May I ask what concentration at 6 h has been recorded for COc1ccc2c(c1)C1CC1(C(=O)N1C3CCC1CN(C)C3)Cn1c-2c(C2CCCCC2)c2ccc(C(=O)NS(=O)(=O)N3CCC3)cc21 (racemic) ?
Response: 0.8

Prompt: May I ask what concentration at 6 h has been recorded for COc1ccc2c(c1)C1CC1(C(=O)N1C3CCC1CN(C)C3)Cn1c-2c(C2CCCCC2)c2ccc(C(=O)NS(=O)(=O)C3CCCC3)cc21 (racemic) ?
Response: 35.3

Prompt: May I ask what concentration at 6 h has been recorded for CCN(C)S(=O)(=O)NC(=O)c1ccc2c(C3CCCCC3)c3n(c2c1)CC1(C(=O)N2C4CCC2CN(C)C4)CC1c1cc(OC)ccc1-3 (racemic) ?
Response: 36.4

Prompt: May I ask what concentration at 6 h has been recorded for COc1ccc2c(c1)C1CC1(C(=O)N1C3CCC1CN(C)C3)Cn1c-2c(C2CCCCC2)c2ccc(C(=O)NS(=O)(=O)C3CCC3)cc21 (racemic) ?
Response: 38.8

Prompt: May I ask what concentration at 6 h has been recorded for CCS(=O)(=O)NC(=O)c1ccc2c(C3CCCCC3)c3n(c2c1)CC1(C(=O)N2C4CCC2CN(C)C4)CC1c1cc(OC)ccc1-3 (racemic) ?
Response: 7.9
